These entries and their values trace back to patent US12365674B2.

- TARGET OR SYSTEM: human HDAC3/SMRT heterodimer (Homo sapiens)
- Construct: Full length human HDAC3-FLAG was expressed in HEK-293F cells along with SMRT
- Sequence (O15379 whole entry): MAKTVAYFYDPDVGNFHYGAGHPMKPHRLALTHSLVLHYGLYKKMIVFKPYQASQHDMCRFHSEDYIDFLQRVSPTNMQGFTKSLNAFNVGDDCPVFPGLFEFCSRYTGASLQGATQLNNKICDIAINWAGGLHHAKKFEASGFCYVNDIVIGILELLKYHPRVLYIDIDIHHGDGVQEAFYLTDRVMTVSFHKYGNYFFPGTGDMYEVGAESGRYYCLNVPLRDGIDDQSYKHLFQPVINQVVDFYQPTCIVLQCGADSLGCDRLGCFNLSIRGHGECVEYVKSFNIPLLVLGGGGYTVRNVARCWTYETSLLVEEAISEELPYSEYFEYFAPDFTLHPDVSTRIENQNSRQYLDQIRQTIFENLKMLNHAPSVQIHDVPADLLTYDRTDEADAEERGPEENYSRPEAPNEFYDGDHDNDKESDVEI
- Sequence (Q9Y618 1-899 partner limits assumed): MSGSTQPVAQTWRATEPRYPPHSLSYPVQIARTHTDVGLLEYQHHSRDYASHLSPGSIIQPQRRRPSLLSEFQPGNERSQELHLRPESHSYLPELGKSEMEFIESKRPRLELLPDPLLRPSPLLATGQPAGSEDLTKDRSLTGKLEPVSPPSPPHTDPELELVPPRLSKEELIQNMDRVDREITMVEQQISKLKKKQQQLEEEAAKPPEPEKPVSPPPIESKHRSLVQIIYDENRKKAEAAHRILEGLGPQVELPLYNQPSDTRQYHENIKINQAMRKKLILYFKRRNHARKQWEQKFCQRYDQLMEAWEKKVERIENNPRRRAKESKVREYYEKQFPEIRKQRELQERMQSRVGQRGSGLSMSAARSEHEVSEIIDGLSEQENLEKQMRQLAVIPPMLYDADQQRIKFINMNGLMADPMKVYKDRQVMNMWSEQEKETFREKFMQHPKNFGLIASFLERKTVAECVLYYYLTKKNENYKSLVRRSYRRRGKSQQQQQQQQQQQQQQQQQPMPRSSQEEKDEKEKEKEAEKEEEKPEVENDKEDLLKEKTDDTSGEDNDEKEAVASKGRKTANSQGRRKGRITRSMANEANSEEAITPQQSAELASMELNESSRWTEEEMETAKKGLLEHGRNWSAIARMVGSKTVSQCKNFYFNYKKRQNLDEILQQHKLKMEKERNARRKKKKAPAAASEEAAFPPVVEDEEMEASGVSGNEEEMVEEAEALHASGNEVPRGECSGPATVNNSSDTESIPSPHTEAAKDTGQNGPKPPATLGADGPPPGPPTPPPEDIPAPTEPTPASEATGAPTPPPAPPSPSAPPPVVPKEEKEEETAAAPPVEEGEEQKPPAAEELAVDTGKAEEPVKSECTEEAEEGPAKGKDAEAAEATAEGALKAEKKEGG
- TEST METHOD NOTES: Human HDAC enzyme inhibitor Fluor-de-Lys assay, HDAC3/SMRT
- PROTOCOL CONDITIONS: HDAC3/SMRT 0.3 nM enzyme, 20 μM substrate BML-KI104, 10 μM IP4, 3 h pre-incubation, 60 min reaction; read-out: HDAC3_IC50

STRUCTURE SMILES STRING: CN1CC(C(=O)N[C@@H](COCCCC(=O)c2ccon2)c2[nH]c(-c3ccc(F)cc3)nc2Cl)C1
IC50 (nM): 9.2
//
STRUCTURE SMILES STRING: Cc1ccc2cc(-c3cnc([C@H](CSCCCC(=O)c4ncco4)NC(=O)[C@H]4CC45CCN(C)CC5)[nH]3)ccc2n1
IC50 (nM): 1.5
//
STRUCTURE SMILES STRING: COc1nc2ccccc2cc1-c1cnc([C@H](COCCCC(=O)c2ccon2)NC(=O)CN(C)C)[nH]1
IC50 (nM): 2.2
//
STRUCTURE SMILES STRING: COc1nc2ccccc2cc1-c1cnc([C@@H](N)COCCCC(=O)c2ncco2)[nH]1
IC50 (nM): 185

====

- TARGET OR SYSTEM: UniProt:Q9UBN7
- Sequence (Q9UBN7 1-1215): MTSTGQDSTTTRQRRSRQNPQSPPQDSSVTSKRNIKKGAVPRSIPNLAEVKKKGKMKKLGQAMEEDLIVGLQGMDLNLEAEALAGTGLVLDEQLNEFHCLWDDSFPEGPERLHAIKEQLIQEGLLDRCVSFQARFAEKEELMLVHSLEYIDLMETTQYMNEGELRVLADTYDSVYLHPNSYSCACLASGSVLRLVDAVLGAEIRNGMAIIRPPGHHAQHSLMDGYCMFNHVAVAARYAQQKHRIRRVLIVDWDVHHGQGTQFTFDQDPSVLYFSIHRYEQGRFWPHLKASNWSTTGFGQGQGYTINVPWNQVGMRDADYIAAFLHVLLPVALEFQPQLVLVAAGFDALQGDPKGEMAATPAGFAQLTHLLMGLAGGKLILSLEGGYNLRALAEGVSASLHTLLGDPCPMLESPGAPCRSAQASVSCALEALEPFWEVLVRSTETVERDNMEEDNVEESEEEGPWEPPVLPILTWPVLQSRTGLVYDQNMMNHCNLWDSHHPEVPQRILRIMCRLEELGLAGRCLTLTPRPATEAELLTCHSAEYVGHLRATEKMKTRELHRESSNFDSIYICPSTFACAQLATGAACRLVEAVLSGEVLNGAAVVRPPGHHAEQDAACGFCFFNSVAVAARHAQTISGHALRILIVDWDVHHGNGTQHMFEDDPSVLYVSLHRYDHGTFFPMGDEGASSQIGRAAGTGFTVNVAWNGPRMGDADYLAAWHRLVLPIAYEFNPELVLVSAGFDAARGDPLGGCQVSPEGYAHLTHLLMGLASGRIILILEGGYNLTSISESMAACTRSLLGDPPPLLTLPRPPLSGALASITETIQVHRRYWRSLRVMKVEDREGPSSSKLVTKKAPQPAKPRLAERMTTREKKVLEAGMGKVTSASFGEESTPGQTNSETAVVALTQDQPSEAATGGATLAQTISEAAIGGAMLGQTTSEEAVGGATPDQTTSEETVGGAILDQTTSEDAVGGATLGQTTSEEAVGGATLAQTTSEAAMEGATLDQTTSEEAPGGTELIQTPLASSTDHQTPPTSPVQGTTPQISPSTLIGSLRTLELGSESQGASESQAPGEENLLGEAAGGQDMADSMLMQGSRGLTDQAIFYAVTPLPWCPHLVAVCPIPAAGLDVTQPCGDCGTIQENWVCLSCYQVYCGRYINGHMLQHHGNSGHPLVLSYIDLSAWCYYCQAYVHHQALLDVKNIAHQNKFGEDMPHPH
pIC50: −log10 of the molar value.
MEASURED ATTRIBUTE: pIC50

COMPOUND: COc1nc2ccccc2cc1-c1cnc([C@H](COCCCC(=O)c2ccon2)NC(=O)CN(C)C)[nH]1 [Compound 14]
TARGET OR SYSTEM: UniProt:Q9UBN7
RESULT: < 4.35
//
COMPOUND: CN1CC(C(=O)N[C@@H](COCCCC(=O)c2ccon2)c2[nH]c(-c3ccc(F)cc3)nc2Cl)C1 [Compound 16]
TARGET OR SYSTEM: UniProt:Q9UBN7
RESULT: < 6.05
//
COMPOUND: CN(C)CC(=O)N[C@@H](COCCCC(=O)c1ccon1)c1[nH]c(-c2ccc(F)cc2)nc1Cl [Compound 17]
TARGET OR SYSTEM: UniProt:Q9UBN7
RESULT: < 6.05
//
COMPOUND: CN1CC(C(=O)N[C@@H](COCCCC(=O)c2ccon2)c2ncc(-c3ccccc3F)[nH]2)C1 [Compound 15]
TARGET OR SYSTEM: UniProt:Q9UBN7
RESULT: < 6.05
//
COMPOUND: COc1cc2nc(C)ccc2cc1-c1cnc([C@H](COCCCC(=O)c2cc(C)on2)NC(=O)C2CN(C)C2)[nH]1 [Compound 19]
TARGET OR SYSTEM: UniProt:Q9UBN7
RESULT: 6.33
//
COMPOUND: COc1nc2ccccc2cc1-c1cnc([C@H](COCCCC(=O)c2ncco2)NC(=O)C23CCN(CC2)CC3)[nH]1 [Compound 12]
TARGET OR SYSTEM: UniProt:Q9UBN7
RESULT: < 4.35
//
COMPOUND: COc1nc2ccccc2cc1-c1cnc([C@H](COCCCC(=O)c2ncco2)NC(=O)c2cncs2)[nH]1 [Compound 10]
TARGET OR SYSTEM: UniProt:Q9UBN7
RESULT: < 4.35
